- Test system: red blood cells
- measurement-notes: Hemolytic activity on red blood cells
- Assay type: cell-based, mouse
observed-property: HD50
// no unit string in output, number only

compound: C[C@@H](c1ccccc1)N(CC(N)=O)C(=O)CN(C(=O)CN(CCCCN)C(=O)CN(Cc1ccccc1)C(=O)CN(Cc1ccccc1)C(=O)CN(CCCCN)C(=O)CN(Cc1ccccc1)C(=O)CN(Cc1ccccc1)C(=O)CN(CCCCN)C(=O)CN(Cc1ccccc1)C(=O)CN(C(=O)CNCCCCN)[C@@H](C)c1ccccc1)[C@@H](C)c1ccccc1 [compound 14]
study-target: red blood cells
HD50: 199.6

# context switch: different compound, same HD50
Quick one: give measured HD50 for C[C@@H](c1ccc(Cl)cc1)N(CC(N)=O)C(=O)CN(C(=O)CN(CCCCN)C(=O)CN(C(=O)CN(C(=O)CN(CCCCN)C(=O)CN(C(=O)CN(C(=O)CN(CCCCN)C(=O)CN(C(=O)CN(C(=O)CNCCCCN)[C@@H](C)c1ccc(Cl)cc1)[C@@H](C)c1ccc(Cl)cc1)[C@@H](C)c1ccc(Cl)cc1)[C@@H](C)c1ccc(Cl)cc1)[C@@H](C)c1ccc(Cl)cc1)[C@@H](C)c1ccc(Cl)cc1)[C@@H](C)c1ccc(Cl)cc1 [compound 19]
10.4
